Listed here are binders together with their documented pKd.
assay-system: SARS-CoV-2 spike protein (SARS-CoV-2, UniProt P0DTC2 14-1208)
pKd: −log10 of the molar value.
measured-endpoint: pKd

- antibody 433 (antibody, V domains shown) VH: QVQLVESGGGVVQPGRSLRLSCAASGFTFSSYAMHWVRQAPGKGLEWVAVISYDGSNKYYADSVKGRFTISRDNSKNTLYLQMNSLRAEDTAVYYCAKDYEVVIAIGGPGAFDYWGQGTLVTVSS VL: SYVLTQPPSVSVAPGKTARITCGGNNIGSKSVHWYQQKPGQAPVLVIYYDSDRPSGIPERFSGSNSGNTATLTISRVEAGDEADYYCQVWDSSSDHVVFGGGTKLTVL: 8.55
- antibody 455 (antibody, V domains shown) VH: QVQLVQSGAEVKKPGSSVKVSCKASGGTFSSYAISWVRQAPGQGLEWMGRIIPILGIANYAQKFQGRVTITADKSTSTAYMELSSLRSEDTAVYYCARDSIVVPAAIISGYYYYGMDVWGQGTTVTVSS VL: QSVLTQPPSVSAAPGQKVTISCSGSSSNIGNNYVSWYQQLPGTAPKLLIYDNNKRPSGIPDRFSGSKSGTSATLGITGLQTGDEADYYCGTWDSSLSAGRVFGGGTKLTVL: 9.06
- antibody 448 (antibody, V domains shown) VH: QVQLVQSGAEVKKPGASVKVSCKASGYTFTSYGISWVRQAPGQGLEWMGWISAYNGNTNYAQKLQGRVTMTTDTSTSTAYMELRSLRSDDTAVYYCAIELLEGFYYYYGMDVWGQGTTVTVSS VL: SYELTQPPSVSVSPGQTARITCSGDALPKQYAYWYQQKPGQAPVLVIYKDSERPSGIPERFSGSSSGTTVTLTISGVQAEDEADYYCQSADSSGTYPYVVFGGGTKLTVL: 7.43
